- Test system: A4-Fuk (B-Lymphoblastic Leukemia)
- protocol notes: combination Emax (second highest fraction inhibited in the dose matrix, 72 h); higher = more inhibition; extreme values may be limits of the assay
The threshold is inclusive: combination Emax of exactly 0.9 counts as satisfied; values below receive not satisfied.

| compound | class |
| --- | --- |
| Cc1c2c(nn1C)CSCc1cc(n(C)n1)CSc1cc(c3ccccc3c1)OCCCc1c(C(=O)O)n(C)c3c-2c(Cl)ccc13 [AZD5991] + CN(C)CCCOc1ccc(-c2ccc3ncc4c(c3c2)n(C2CCOCC2)c(=O)n4C)cn1 [AZD0156] (first compound max 1 µM, 7x7, partner max 1 µM) | satisfied |
| NC1(C(=O)N[C@@H](CCO)c2ccc(Cl)cc2)CCN(c2ncnc3[nH]ccc23)CC1 [Capivasertib] + CC(=O)c1c(C)c2cnc(Nc3ccc(N4CCNCC4)cn3)nc2n(C2CCCC2)c1=O [Palbociclib] (first compound max 10 µM, 7x7, partner max 10 µM) | not satisfied |
| CN(CCO)CC[C@H](CSc1ccccc1)Nc1ccc(S(=O)(=O)NC(=O)c2ccc(N3CCC([C@@H](O)c4ccccc4-c4ccc(Cl)cc4)CC3)cc2)cc1S(=O)(=O)C(F)(F)F [AZD4320] + C1CN(CCC1(C(=O)N[C@@H](CCO)C2=CC=C(C=C2)Cl)N)C3=NC=NC4=C3C=CN4 [Capivasertib] (first compound max 1 µM, 7x7, partner max 3 µM) | not satisfied |
| Cc1c2c(nn1C)CSCc1cc(n(C)n1)CSc1cc(c3ccccc3c1)OCCCc1c(C(=O)O)n(C)c3c-2c(Cl)ccc13 [AZD5991] + CS(=O)(=O)CCNCc1ccc(-c2ccc3ncnc(Nc4ccc(OCc5cccc(F)c5)c(Cl)c4)c3c2)o1 [Lapatinib] (first compound max 1 µM, 7x7, partner max 10 µM) | satisfied |
| C[C@@H](Nc1cc(F)cc(F)c1)c1cc(C(=O)N(C)C)cc2c(=O)cc(N3CCOCC3)oc12 [AZD8186] + C1CN(CCC1(C(=O)N[C@@H](CCO)C2=CC=C(C=C2)Cl)N)C3=NC=NC4=C3C=CN4 [AZD5363] (first compound max 10 µM, 7x7, partner max 10 µM) | not satisfied |
| CC1(C)CCC(CN2CCN(c3ccc(C(=O)NS(=O)(=O)c4ccc(NCC5CCOCC5)c([N+](=O)[O-])c4)c(Oc4cnc5[nH]ccc5c4)c3)CC2)=C(c2ccc(Cl)cc2)C1 [Venetoclax] + CS(=O)(=O)CCNCc1ccc(-c2ccc3ncnc(Nc4ccc(OCc5cccc(F)c5)c(Cl)c4)c3c2)o1 [Lapatinib] (first compound max 1 µM, 7x7, partner max 10 µM) | not satisfied |
| C=CCn1c(=O)c2cnc(Nc3ccc(N4CCN(C)CC4)cc3)nc2n1-c1cccc(C(C)(C)O)n1 [AZD1775] + CCc1c2c(nc3ccc(O)cc13)-c1cc3c(c(=O)n1C2)COC(=O)[C@]3(O)CC [SN-38] (first compound max 1 µM, partner max 0.3 µM) | satisfied |
| Cc1c2c(nn1C)CSCc1cc(n(C)n1)CSc1cc(c3ccccc3c1)OCCCc1c(C(=O)O)n(C)c3c-2c(Cl)ccc13 [AZD5991] + Cc1cc2ncnn2cc1Nc1ncc2c(n1)n(C1CCOCC1)c(=O)n2C [AZD7648] (first compound max 1 µM, 7x7, partner max 10 µM) | satisfied |

// provenance: the supplement of paper PMC11061612
